Quick list: pIC50 per entry.
target: HLA DRB1*1101 (human)
test-description: competition with 125I probe peptide, purified HLA
Remember the convention: pIC50 equals -log10 of concentration in molar.

What does the data say about its pIC50? Entry: DWVMAIFGVNPTVAEGF (modifications not checked) [HPV45.E1.228 HTL epitope]
5.30

---
Which pIC50 value is on record for FHSIAGQYRGQCNTC (modifications not checked) [HPV45.E6.127 HTL epitope] ?
6.38

Which value of pIC50 has been reported for QRFHNIRGRWTGRCM (modifications not checked) [HPV16.E6.130 HTL epitope] in the records?
6.24

Can you look up the measured pIC50 of TGRCIACWRRPRTET (modifications not checked) [HPV31.E6.132 HTL epitope] for me?
6.80

pIC50 for WKHMRLECAIYYKAR (modifications not checked) [HPV16.E2.033 HTL epitope] ?
5.62

Give its pIC50 value. Item: WKHIRLECVLMYKAR (modifications not checked) [HPV31.E2.033 HTL epitope]
7.09
